molecular target: Ec YeaWX lysate (Escherichia coli YeaW/YeaX) (Escherichia coli); construct: create a 5′ NdeI restriction site including the ATG start codon of yeaW; create a PstI restriction site just 3′ of the yeaX TAG stop codon; made in house; host or cells: E. coli BL21 (DE3), pET30a, IPTG induction; unpurified French-press lysate supernatant; experiment: Inhibition of d9-TMA formation from d9-carnitine in Ec YeaWX lysate (LC-MS/MS); assay type: biochemical; settings: Ec YeaWX lysate 2.0 mg/mL protein, 250 μM NADPH, 50 μM d9-carnitine chloride, 37° C. for two hours; read-out: TMA Inhibition (IC50, mol/L)
pIC50: −log10 of the molar value.
Threshold check on pIC50: at or above 4 gives Condition met, strictly below gives Condition not met.

compound	answerLabel
CC(C)CCN=C=S [Compound 16, 1-isothiocyanato-3-methylbutane]	Condition met
S=C=Nc1cccc2ccccc12 [Compound 19, 1-Naphthyl isothiocyanate]	Condition met
CC(C)N=C=S [Compound 15, Isopropyl isothiocyanate]	Condition not met
C[C@H](N=C=S)c1ccccc1 [Compound 26]	Condition met
S=C=NC1CCCCC1 [Compound 30, Cyclohexyl isothiocyanate]	Condition met
S=C=Nc1ccccc1 [Compound 18, Phenyl isothiocyanate]	Condition met
CCN(CC)CCN=C=S [Compound 40]	Condition not met
CC(C)(C)OC(=O)Nc1ccc(N=C=S)cc1 [Compound 23, N-Boc-4-isothiocyanatoaniline]	Condition met
COc1ccccc1N=C=S [Compound 32, 2-Methoxyphenyl isothiocyanate]	Condition met
O=C(N=C=S)c1ccccc1 [Compound 21, Benzoyl isothiocyanate]	Condition not met
CCCCCCN=C=S [Compound 17, Hexyl isothiocyanate]	Condition met
CC(=O)O[C@H]1[C@H](OC(C)=O)[C@@H](N=C=S)OC[C@H]1OC(C)=O [Compound 39]	Condition met
S=C=Nc1ccc(Br)cc1 [Compound 20, 4-Bromophenyl isothiocyanate]	Condition met
COc1ccc(N=C=S)cc1 [Compound 28, 4-Methoxyphenyl isothiocyanate]	Condition met
COc1ccc(OC)c(N=C=S)c1 [Compound 33, 2,5-Dimethoxyphenyl isothiocyanate]	Condition met
S=C=Nc1ccc(Cl)cc1 [Compound 27, 4-Chlorophenyl isothiocyanate]	Condition met
S=C=N[C@@H]1C[C@H]2CC[C@@H]1C2 (relative stereo) [Compound 29, exo-2-Norbornyl-isothiocyanate]	Condition met
CN(C)CCN=C=S [Compound 42, 2-Isothiocyanato-N,N-dimethylethanamine]	Condition not met
S=C=NC(c1ccccc1)c1ccccc1 [Compound 38, Benzhydryl isothiocyanate]	Condition met
CCN(CC)CCCN=C=S [Compound 7, 3-(Diethylamino)propyl isothiocyanate]	Condition not met
CCCCCC12CCC(C(=O)Oc3ccc(N=C=S)cc3)(CC1)CC2 [Compound 37]	Condition not met
S=C=NCC1CCCCC1 [Compound 8, Cyclohexylmethyl isothiocyanate]	Condition met
CCc1ccc(N=C=S)cc1 [Compound 31, 4-Ethylphenyl isothiocyanate]	Condition met
CC(C)(C)OC(=O)NCCCCN=C=S [Compound 22, N-Boc-4-isothiocyanatobutylamine]	Condition met
CCOC(=O)CN=C=S [Compound 36, Ethyl isothiocyanatoacetate]	Condition met
CCCCCN=C=S [Compound 6, 1-pentyl isothiocyanate]	Condition met
CC(C)(C)N=C=S [Compound 2, tert-Butyl isothiocyanate]	Condition not met
CCC(C)N=C=S (stereo not drawn) [Compound 10, sec-butyl isothiocyanate]	Condition not met
CCCCN=C=S [Compound 13, Butyl isothiocyanate]	Condition met
S=C=NCCc1ccc(Cl)cc1 [Compound 9, 2-(4-Chlorophenethyl) isothiocyanate]	Condition met
CSc1ccc(N=C=S)cc1 [Compound 4, 4-(Methylthio)phenyl isothiocyanate]	Condition met
COc1ccc(C)cc1N=C=S [Compound 1, 2-Methoxy-5-methylphenyl isothiocyanate]	Condition met
S=C=NCc1ccccc1 [Compound 5, Benzyl isothiocyanate]	Condition met
CN(C)CCCN=C=S [Compound 41]	Condition not met
S=C=NCCCN1CCOCC1 [Compound 24, 3-(4-Morpholino)propyl isothiocyanate]	Condition met

###

target: Ec YeaWX lysate (Escherichia coli YeaW/YeaX) (Escherichia coli, UniProt P0ABR7); construct: create a 5′ NdeI restriction site including the ATG start codon of yeaW; create a PstI restriction site just 3′ of the yeaX TAG stop codon; unpurified French-press lysate supernatant; test: Inhibition of d9-TMA formation from d9-carnitine in Ec YeaWX lysate (LC-MS/MS); details: Ec YeaWX lysate 2.0 mg/mL protein, 250 μM NADPH, 50 μM d9-carnitine chloride, 37° C. for two hours; read-out: TMA Inhibition (IC50, mol/L)
Sequence (P0ABR7 whole entry): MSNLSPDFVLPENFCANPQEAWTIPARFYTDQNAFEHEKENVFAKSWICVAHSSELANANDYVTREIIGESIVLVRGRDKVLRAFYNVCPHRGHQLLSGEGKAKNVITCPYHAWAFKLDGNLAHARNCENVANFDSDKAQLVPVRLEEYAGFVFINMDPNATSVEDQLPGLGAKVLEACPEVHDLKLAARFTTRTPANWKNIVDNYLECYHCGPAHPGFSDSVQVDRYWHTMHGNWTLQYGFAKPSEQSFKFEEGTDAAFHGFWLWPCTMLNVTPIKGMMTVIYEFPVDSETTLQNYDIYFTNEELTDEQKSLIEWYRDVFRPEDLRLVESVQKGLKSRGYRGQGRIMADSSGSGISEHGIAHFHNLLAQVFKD
pIC50: −log10 of the molar value.
experimentalReadout: pIC50

compound	observedResult
S=C=NCCN1CCOCC1 [Compound 25, 2-(4-Morpholino)ethyl isothiocyanate]	4.16
CC(C)CN=C=S [Compound 12, Isobutyl isothiocyanate]	4.13
COc1cccc(N=C=S)c1 [Compound 34, 3-Methoxyphenyl isothiocyanate]	5.02
Cc1cccc(N=C=S)c1 [Compound 3, m-Tolyl isothiocyanate]	4.84
